Parameter polymerase ribozyme fitness (log ratio): see the listing below.
B1: TPR t1 (parent)
chain: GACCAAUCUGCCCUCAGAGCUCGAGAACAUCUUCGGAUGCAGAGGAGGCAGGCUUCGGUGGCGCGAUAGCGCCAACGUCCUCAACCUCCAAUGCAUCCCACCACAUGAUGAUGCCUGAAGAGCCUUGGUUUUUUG

- Variants of: B1
- procedure.text: polymerase ribozyme fitness, log enrichment relative to wild type (log ratio); higher = more active; in vitro selection for triplet polymerase activity

The cases that follow already have their polymerase ribozyme fitness (log ratio) on record.
{"sequence.text": "GACCAAUCUGCCCUCAGAGCUCGAGAACAUCUUCGGAUGCAGAGGAGGCAGGCUUCGGUGGCGCGAUAACGCAAACGUCCUCAACCUCCAAUGCAUCCCACCACAUGAUGAUGCCUGAAGAGCCUUGGUUUUUUG", "experimental.value": -2.75}
{"sequence.text": "GACCAAUCUGCCUUCAGAGCUCGAGAACAUCUUCGGAUGCAGAGGAGGCAGGCUUCGGUGGCGCGAUAGCGCCAACGUACUCAACCUCCAAUGCAUCCCACCACAUGAUGAUGCAUGAAGAGCCUUCGUUUUUUG", "experimental.value": -1.14}
{"sequence.text": "GACCAAACUGCCCUCAUAGCUCGAGAACAUCUUCGGAUGCAGAGGAGGCAGGCUUCGGUGGCGCGAUAGCGCCAACGUCCUCAACCUCCAAUGCAUCCCACCACAUGAUGAUGCCUAGAGAGCCUUGGUUUUUUG", "experimental.value": -2.58}
{"sequence.text": "GACCAAUCUGCCCUCAGAGCUCGAGAACAUCUUCGGAUGCAGAGGAGGCAGGCUUCGGUGGCGCGAUAGCGCUAACGUCCUCAACCUCCACUGCAUCCCACCACAUGAUGAUGCCUGAAGAGCCUUGGUUUUUUG", "experimental.value": -1.74}

Next variant, polymerase ribozyme fitness (log ratio) to be filled in.
Query string: Report measured polymerase ribozyme fitness (log ratio); entry is GACCAUUCUGCCCUCAGAGCUCGAGAACAUCUUCGGAUGCAGAGGAGGCAGGCUUCGGUGGCGCGAUAGCGCCAACGUCCUCAACUUCGAAUGCAUCCCACCACAUGAUGAUGCCUGAAGAGCCUUGGUUUUUUG
Result string: -1.63

Each recorded value in this set is attributed to the RNAGym collection of RNA variant scans (doi:10.1073/pnas.2313332121).
